What IFN-γ production (donor X); antibody 10 µg/ml, N = 2 was measured for each of the following?
Biological target: T1, TIM-3 protein on human peripheral blood mononuclear lymphocytes (PBMC) (human, UniProt Q8TDQ0 22-301)
T1 sequence: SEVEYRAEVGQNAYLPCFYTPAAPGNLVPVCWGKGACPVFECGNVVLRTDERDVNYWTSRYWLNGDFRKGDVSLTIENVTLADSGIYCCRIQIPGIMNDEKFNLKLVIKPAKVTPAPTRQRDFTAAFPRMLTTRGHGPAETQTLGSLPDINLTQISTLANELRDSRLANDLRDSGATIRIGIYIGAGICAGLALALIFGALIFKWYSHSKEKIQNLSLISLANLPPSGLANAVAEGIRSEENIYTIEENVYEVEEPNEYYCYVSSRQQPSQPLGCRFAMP
Experiment: cell-based or functional assay
One number for each entry, in pg/mL.

Example cases with answers are listed next.
Ask: // lookup IFN-γ production (donor X); antibody 10 µg/ml, N = 2 for 34B6D8 fully human TIM-3 antibody (human IgG4, kappa) (antibody, V domains shown) VH: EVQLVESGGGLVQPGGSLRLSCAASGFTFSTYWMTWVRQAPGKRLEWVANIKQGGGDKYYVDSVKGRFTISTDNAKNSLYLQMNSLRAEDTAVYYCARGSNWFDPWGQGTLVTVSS VL: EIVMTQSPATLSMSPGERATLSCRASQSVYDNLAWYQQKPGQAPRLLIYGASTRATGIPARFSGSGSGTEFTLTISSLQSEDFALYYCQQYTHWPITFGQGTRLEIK
Result: 3330

Ask: Query: IFN-γ production (donor X); antibody 10 µg/ml, N = 2; subject: 39E5H1 fully human TIM-3 antibody (human IgG4, kappa) (antibody, V domains shown) VH: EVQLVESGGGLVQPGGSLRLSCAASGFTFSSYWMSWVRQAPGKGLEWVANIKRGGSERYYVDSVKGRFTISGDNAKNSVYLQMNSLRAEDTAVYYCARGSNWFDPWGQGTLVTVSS VL: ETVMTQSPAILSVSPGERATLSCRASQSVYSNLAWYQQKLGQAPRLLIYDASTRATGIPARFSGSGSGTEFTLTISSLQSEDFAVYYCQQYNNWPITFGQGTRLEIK
Result: 3130

Let's switch to this binder now.
Ask: // returns reported IFN-γ production (donor X); antibody 10 µg/ml, N = 2 for input 7A4F10 fully human TIM-3 antibody (human IgG4, kappa) (antibody, V domains shown) VH: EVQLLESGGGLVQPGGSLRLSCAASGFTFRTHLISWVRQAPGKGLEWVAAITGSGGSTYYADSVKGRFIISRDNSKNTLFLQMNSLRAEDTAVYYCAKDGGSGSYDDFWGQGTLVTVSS VL: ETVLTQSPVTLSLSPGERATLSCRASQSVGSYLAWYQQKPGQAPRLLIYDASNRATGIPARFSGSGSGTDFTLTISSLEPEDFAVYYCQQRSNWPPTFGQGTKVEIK
Result: 2360

FYI, the data here is from patent US20220033501A1.
